# Tested on: rabbit vWF A1 domain (SEQ ID NO 6)
# Sequence (as listed by the source): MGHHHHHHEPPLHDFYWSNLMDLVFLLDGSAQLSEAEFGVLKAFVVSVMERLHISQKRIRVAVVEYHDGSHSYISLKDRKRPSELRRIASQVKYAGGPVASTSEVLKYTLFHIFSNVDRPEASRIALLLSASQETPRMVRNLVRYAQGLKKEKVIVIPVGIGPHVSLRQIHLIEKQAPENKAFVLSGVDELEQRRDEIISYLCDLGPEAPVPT
# EXPERIMENT DESCRIPTION: 3-point dot blot screen, rabbit vWF A1 domain
# Assay type: binding
# CONDITION SUMMARY: 3-point dot blot screen, 20 nM rabbit vWF A1 domain; ratio of fraction of aptamer bound with target protein to fraction bound without protein
MEASUREMENT TYPE: Screen Rabbit/No Protein
Number, no unit, nothing else.

Asked: Complete the entry with Screen Rabbit/No Protein for AMX237.G2: DNA SELEX 2 aptamer clone (nucleic acid, DNA, backbone not given here, DNA SELEX 2 aptamer clone) DNA: CTACCTACGATCTGACTAGCTTTCAGTCTTTCATATTTATAGGGTTTGGCATTGGGTCTGGCTTACTCTCATGTAGTTCC
Given back: 1.16

Asked: Complete the entry with Screen Rabbit/No Protein for AMX237.F12: DNA SELEX 2 aptamer clone (nucleic acid, DNA, backbone not given here, DNA SELEX 2 aptamer clone) DNA: CTACCTACGATCTGACTAGCTTGGTAGCGATTTTGTGGAGCTGCGGTTTGGTCGACGTCAGCTTACTCTCATGTAGTTCC
Given back: 2.08

Asked: Complete the entry with Screen Rabbit/No Protein for AMX237.F10: DNA SELEX 2 aptamer clone (nucleic acid, DNA, backbone not given here, DNA SELEX 2 aptamer clone) DNA: CTACCTACGATCTGACTAGCGTGCAGTGCCCATTCCAGGCCGTGCGGTATCCTCCGTCACGCTTACTCTCATGTAGTTCC
Given back: 2.90

Asked: Complete the entry with Screen Rabbit/No Protein for AMX238.D12: DNA SELEX 2 aptamer clone (nucleic acid, DNA, backbone and methylation of C not given here, DNA SELEX 2 aptamer clone) DNA: CTACCTACGATCTGACTAGCTCCAGTGTTTCATTCAATAACCGTGCGGTGCCTCCGTGAGCTTACTCTCATGTAGTTCC
Given back: 2.19

Asked: Complete the entry with Screen Rabbit/No Protein for AMX237.A11: DNA SELEX 2 aptamer clone (nucleic acid, DNA, backbone and methylation of C not given here, DNA SELEX 2 aptamer clone) CTACCTACGATCTGACTAGCTCCAGTGTTTTATCCAATAACCGTGCGGTGCCTCCGTGAGCTTACTCTCATGTAGTTCC
Given back: 2.38

Asked: Complete the entry with Screen Rabbit/No Protein for AMX236.A12: DNA SELEX 2 aptamer clone (nucleic acid, DNA, backbone not given here, DNA SELEX 2 aptamer clone) CTACCTACGATCTGACTAGCTTGGTAGCGACTCTGTGGAGCTGCGGTTTGGTCGACGTCAGCTTACTCTCATGTAGTTCC
Given back: 2.41

Asked: Complete the entry with Screen Rabbit/No Protein for AMX238.G5: DNA SELEX 2 aptamer clone (nucleic acid, DNA, backbone and methylation of C not given here, DNA SELEX 2 aptamer clone) DNA: CTACCTACGATCTGACTAGCTCCAGTGTTTTATTCAATAACCGTGCGGTGCCTCCGTGAGCTTACTCTCATGTAGTTCC
Given back: 2.68

Asked: Complete the entry with Screen Rabbit/No Protein for AMX238.A11: DNA SELEX 2 aptamer clone (nucleic acid, DNA, backbone not given here, DNA SELEX 2 aptamer clone) DNA: CTACCTACGATCTGACTAGCGGAATGAGAGTGTTGGTGGATTGCTCAGGTCTGCTGGCTGCTTACTCTCATGTAGTTCC
Given back: 4.54

Data provenance is patent US7998940B2.
